Measured values drawn from patent US20110190503A1 for this set.

Biological target: recombinant human LTA4 hydrolase (rhLTA4H) (Homo sapiens)
Construct: made in house; host or cells: Spodoptera frugiperda (Sf-9) cells, recombinant baculovirus (pFastBac1)
Sequence (P09960 1-611): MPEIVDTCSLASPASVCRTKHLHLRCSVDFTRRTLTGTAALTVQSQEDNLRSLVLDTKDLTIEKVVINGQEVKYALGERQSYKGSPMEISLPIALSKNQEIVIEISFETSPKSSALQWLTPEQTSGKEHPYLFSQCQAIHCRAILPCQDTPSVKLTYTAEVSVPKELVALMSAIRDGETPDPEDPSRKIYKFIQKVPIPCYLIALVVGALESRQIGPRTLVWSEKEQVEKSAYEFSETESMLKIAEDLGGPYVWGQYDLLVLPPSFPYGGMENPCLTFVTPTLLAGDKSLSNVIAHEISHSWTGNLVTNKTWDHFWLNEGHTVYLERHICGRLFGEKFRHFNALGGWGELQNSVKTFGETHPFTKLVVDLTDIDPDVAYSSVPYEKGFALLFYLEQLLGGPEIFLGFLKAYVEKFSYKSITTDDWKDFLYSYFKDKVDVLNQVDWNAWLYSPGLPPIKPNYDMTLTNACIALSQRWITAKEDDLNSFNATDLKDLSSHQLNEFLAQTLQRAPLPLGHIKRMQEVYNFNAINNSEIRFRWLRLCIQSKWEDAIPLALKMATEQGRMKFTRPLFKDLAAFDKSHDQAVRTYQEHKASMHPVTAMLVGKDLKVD
Assay: Recombinant human LTA4 hydrolase assay for LTA4 hydrolase inhibitor activity
Format: biochemical
Settings: rhLTA4H, LTA4 substrate, LTB4 by immunoassay; single determination or average; read-out: IC50
observed property: IC50 (nM)

Solved cases below.
NC(=O)N1C[C@@H]2C[C@H]1CN2CCc1ccc(Oc2nc3cccnc3s2)cc1 :: 160
OC1(c2ccc(Cl)cc2)CCN(CCc2ccc(Oc3nc4ncccc4s3)cc2)CC1 :: 34
CC(=O)N1CC2CN(CCc3ccc(Oc4nc5ncccc5s4)cc3)CC2C1 (stereo not drawn) :: 12
Cc1ccnc2nc(Oc3ccc(CN4CCN(c5ccncc5)CC4)cc3)sc12 :: 647

I. c1cnc2nc(Oc3ccc(CN4CCC(N5CCCCC5)CC4)cc3)sc2c1
II. CC(C)(CO)NC(=O)C1CCN(CCOc2ccc(Oc3nc4cnccc4s3)cc2)CC1
Choose between I and II : whose measured IC50 value is numerically larger? # answer = label of selected item II

A. CCOC(=O)CN(Cc1ccccc1)Cc1ccc(Oc2nc3ncccc3s2)cc1
B. c1ccc(C2CCN(CCOc3ccc(Oc4nc5ncccc5s4)cc3)CC2)nc1
Lowest IC50? choose A or B # answer = label of selected item B
(B: 19 nM, A: 176 nM)

====

target: recombinant human LTA4 hydrolase (rhLTA4H) (Homo sapiens); construct: made in house; host or cells: Spodoptera frugiperda (Sf-9) cells, recombinant baculovirus (pFastBac1); assay: Recombinant human LTA4 hydrolase assay for LTA4 hydrolase inhibitor activity; format: biochemical; details: rhLTA4H, LTA4 substrate, LTB4 by immunoassay; single determination or average; read-out: IC50
pIC50: −log10 of the molar value.
observed property: pIC50

Solved cases below.
CC(=O)N1C[C@H]2CC[C@@H](C1)N2Cc1ccc(Oc2nc3ncccc3s2)cc1 [Example 107] :: 8.40
Cc1ccnc2nc(Oc3ccc(CN4C[C@H]5CC[C@@H](C4)N5C(N)=O)cc3)sc12 [Example 203] :: 6.17

P. c1ccc(SC2CCN(Cc3ccc(Oc4nc5ncccc5s4)cc3)CC2)cc1 [Example 264]
Q. OCCCN(CCOc1ccc(Oc2nc3ccncc3s2)cc1)C1CC1 [Example 208]
Lowest pIC50? choose P or Q # answer = label of selected item Q

====

molecular target: recombinant human LTA4 hydrolase (rhLTA4H) (Homo sapiens); construct: made in house; host or cells: Spodoptera frugiperda (Sf-9) cells, recombinant baculovirus (pFastBac1); assay: Recombinant human LTA4 hydrolase assay for LTA4 hydrolase inhibitor activity; assay type: biochemical; conditions: rhLTA4H, LTA4 substrate, LTB4 by immunoassay; single determination or average; read-out: IC50
pIC50: −log10 of the molar value.
observed property: pIC50

Solved cases below.
CC(=O)N1C[C@H]2C[C@@H]1CN2Cc1ccc(Oc2nc3ncccc3s2)cc1 [Example 265] :: 7.96
CS(=O)(=O)NC1CCN(CCOc2ccc(Oc3nc4ncccc4s3)cc2)CC1 [Example 163] :: 8.22
NC(=O)N[C@@H]1C[C@H]2CC[C@@H](C1)N2CCc1ccc(Oc2nc3ncccc3s2)cc1 [Example 50] :: 8.70
C[C@H]1COCCN1Cc1ccc(Oc2nc3ncccc3s2)cc1 [Example 88] :: 8.10
Clc1ccc(SC2CCN(CCOc3ccc(Oc4nc5ncccc5s4)cc3)CC2)cc1 [Example 136] :: 6.37
c1cnc2nc(Oc3ccc(OCCN4CCC(Oc5ccncc5)CC4)cc3)sc2c1 [Example 13] :: 7.89

P. c1ccc(CC2CCN(Cc3ccc(Oc4nc5ncccc5s4)cc3)CC2)cc1 [Example 102]
Q. Clc1cnc2nc(Oc3ccc(CN4CCSCC4)cc3)sc2c1 [Example 189]
R. O=C(O)CN(Cc1ccccc1)Cc1ccc(Oc2nc3ncccc3s2)cc1 [Example 274]
Please produce an ascending ranking of these molecules based on pIC50. Response format: the labels, sorted as the prompt asks. R, Q, P

====

Target: recombinant human LTA4 hydrolase (rhLTA4H) (Homo sapiens)
Construct: made in house; host or cells: Spodoptera frugiperda (Sf-9) cells, recombinant baculovirus (pFastBac1)
Assay: Recombinant human LTA4 hydrolase assay for LTA4 hydrolase inhibitor activity
Type: biochemical
Details: rhLTA4H, LTA4 substrate, LTB4 by immunoassay; single determination or average; read-out: IC50
Procedure: Assay 1: Recombinant Human LTA4 Hydrolase Assay for LTA4 Hydrolase Inhibitor Activity Compounds of the present invention were tested for LTA4 hydrolase inhibitor activity against recombinant human LTA4 hydrolase (rhLTA4H). Vectors were prepared and used to express rhLTA4H essentially as follows: LTA4 hydrolase encoding DNA was amplified by polymerase chain reaction (PCR) using a human placental cDNA library as a template. […]
pIC50: −log10 of the molar value.
observed property: pIC50

Solved cases below.
NC(=O)N1[C@@H]2CC[C@H]1CN(CCOc1ccc(Oc3nc4ncccc4s3)cc1)C2 [Example 149] :: 7.20
OC1(c2ccc(Cl)cc2)CCN(Cc2ccc(Oc3nc4ncccc4s3)cc2)CC1 [Example 104] :: 8.72

A. CC(=O)N1C[C@@H]2CC[C@H]1CN2Cc1ccc(Oc2nc3ncccc3s2)cc1 [Example 290]
B. CCC(=O)NC1CCN(Cc2ccc(Oc3nc4cccnc4s3)cc2)CC1 [Example 219]
Lowest pIC50? choose A or B # answer = label of selected item B

====

This listing pairs compounds with measured pIC50.
tested on: LTB4 production by calcium ionophore-stimulated human blood; experiment: LTB4 production by calcium ionophore-stimulated human blood for LTA4H inhibitor activity; assay type: cell-based; conditions: Homo sapiens
The meaning of pIC50 here: minus log10 of the concentration in molar units.

CC(=O)N[C@H]1C[C@H]2CC[C@@H](C1)N2Cc1ccc(Oc2nc3ncccc3s2)cc1 [Example 116] :: 7.72

Shifting focus to the compound that follows.
// compound CC(=O)N[C@@H]1C[C@H]2CC[C@@H](C1)N2Cc1ccc(Oc2nc3ncccc3s2)cc1 [Example 109] , assay LTB4 production by calcium ionophore-stimulated human blood, pIC50 value: 7.06

====

Target: recombinant human LTA4 hydrolase (rhLTA4H) (Homo sapiens)
Construct: made in house; host or cells: Spodoptera frugiperda (Sf-9) cells, recombinant baculovirus (pFastBac1)
Sequence (P09960 1-611): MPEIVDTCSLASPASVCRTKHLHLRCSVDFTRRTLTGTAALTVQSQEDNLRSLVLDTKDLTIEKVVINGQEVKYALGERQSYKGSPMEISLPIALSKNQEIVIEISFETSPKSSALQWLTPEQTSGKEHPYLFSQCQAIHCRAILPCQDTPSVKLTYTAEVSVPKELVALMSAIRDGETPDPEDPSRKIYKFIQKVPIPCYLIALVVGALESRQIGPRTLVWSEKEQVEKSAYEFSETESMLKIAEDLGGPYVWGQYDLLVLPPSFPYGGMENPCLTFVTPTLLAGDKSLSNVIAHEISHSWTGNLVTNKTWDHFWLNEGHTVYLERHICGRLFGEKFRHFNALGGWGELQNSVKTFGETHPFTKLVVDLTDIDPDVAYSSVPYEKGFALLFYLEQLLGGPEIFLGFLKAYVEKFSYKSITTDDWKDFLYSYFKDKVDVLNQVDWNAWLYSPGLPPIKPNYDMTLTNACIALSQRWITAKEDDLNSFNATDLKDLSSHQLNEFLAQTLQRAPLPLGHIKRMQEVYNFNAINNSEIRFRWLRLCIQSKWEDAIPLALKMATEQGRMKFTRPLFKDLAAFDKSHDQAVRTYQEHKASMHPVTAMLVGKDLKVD
Experiment: Recombinant human LTA4 hydrolase assay for LTA4 hydrolase inhibitor activity
Assay type: biochemical
Settings: rhLTA4H, LTA4 substrate, LTB4 by immunoassay; single determination or average; read-out: IC50
observed property: IC50 (nM)

Solved cases below.
Cc1cnc2nc(Oc3ccc(CN4CCC(NC(=O)c5cccs5)CC4)cc3)sc2c1 [Example 220] :: 109
CC(=O)N1[C@@H]2CC[C@H]1C[C@H](NCc1ccc(Oc3nc4ncccc4s3)cc1)C2 [Example 170] :: 29
FC1(F)CCN(Cc2ccc(Oc3nc4ncccc4s3)cc2)C1 [Example 93] :: 55

I. CC(=O)N1[C@@H]2CC[C@H]1C[C@H](NCCc1ccc(Oc3nc4ncccc4s3)cc1)C2 [Example 214]
II. CCN(CCc1ccc(Oc2nc3cccnc3s2)cc1)C1CC1 [Example 174]
III. Cc1cnc2nc(Oc3ccc(OCCN4CCC(C(=O)N5CCOCC5)CC4)cc3)sc2c1 [Example 145]
Reorder: IC50, max to min. Response format: the labels, sorted as the prompt asks. III, II, I
(III: 275 nM, II: 94 nM, I: 3 nM)

1. NC(=O)N1CC2CN(CCc3ccc(Oc4nc5ccncc5s4)cc3)CC2C1 (stereo not drawn) [Example 246]
2. CC(=O)N(C)[C@@H]1C[C@H]2CC[C@@H](C1)N2Cc1ccc(Oc2nc3cccnc3s2)cc1 [Example 228]
3. CC1CCN(Cc2ccc(Oc3nc4ncccc4s3)cc2)CC1 [Example 97]
4. NC(=O)C1CCN(CCc2ccc(Oc3nc4ncccc4s3)cc2)CC1 [Example 66]
Please produce an ascending ranking of these compounds based on IC50. Response format: the labels, sorted as the prompt asks. 3, 4, 2, 1

P. NC(=O)N1C[C@@H]2C[C@H]1CN2CCc1ccc(Oc2nc3ncccc3s2)cc1 [Example 45]
Q. FC1CCN(CCc2ccc(Oc3nc4nccnc4s3)cc2)CC1 [Example 180]
Choose between P and Q : whose measured IC50 value is numerically larger? # answer = label of selected item Q
(Q: 71 nM, P: 3.9 nM)

P. c1cnc2nc(Oc3ccc(OCCN4CCC(c5ccncc5)CC4)cc3)sc2c1 [Example 29]
Q. CN(C)CCC1CCCCN1Cc1ccc(Oc2nc3ncccc3s2)cc1 (stereo not drawn) [Example 258]
Choose between P and Q : whose measured IC50 value is numerically larger? # answer = label of selected item P

A. OCC1CN(Cc2ccc(Oc3nc4ncccc4s3)cc2)CCO1 (stereo not drawn) [Example 82]
B. CC(=O)N1C[C@@H]2C[C@H]1CN2Cc1ccc(Oc2nc3ncccc3s2)cc1 [Example 127]
Lowest IC50? choose A or B # answer = label of selected item B
